The values you see were collected from paper PMC11589570.

Catalogue of compounds with associated CSP
biological target: GABARAPL2 (Homo sapiens, UniProt P60520); conditions: residue V107; GABARAPL2:ligand molar ratio 1:2
Sequence (P60520 whole entry): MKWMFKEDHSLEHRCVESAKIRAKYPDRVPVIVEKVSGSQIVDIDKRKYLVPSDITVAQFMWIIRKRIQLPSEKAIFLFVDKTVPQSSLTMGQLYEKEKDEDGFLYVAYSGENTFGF
Return type: number; implicit unit ppm.

{"Smiles": "O=c1cc(-c2ccccc2)c2c(O)cc(O)cc2o1", "CSP [ppm]": 0.006}

I would be grateful if you could share the reported CSP for `Cc1ccc(C(=O)N(CCCN)[C@@H](c2nc3cc(Cl)ccc3c(=O)n2Cc2ccccc2)C(C)C)cc1` . 0.005

I would be grateful if you could share the reported CSP for `O=C1Nc2ccc(Br)cc2C1=Cc1cc(O)c(O)c(Br)c1` . 0.006

I would be grateful if you could share the reported CSP for `O=C1Nc2ccc(I)cc2C1=Cc1cc(Br)c(O)c(Br)c1` . 0.039

====

Target: LC3A (Homo sapiens)
Test: Isothermal titration calorimetry (ITC)
Assay type: binding
Conditions: LC3A; read-out: KD (ITC)
Description: To minimize nonspecific dilution heat effects, DMSO concentrations in the protein and compound samples were matched. […] The heat of binding was integrated, corrected, and fitted to an independent single-binding site model based on the manufacturer’s instructions, from which thermodynamic parameters (ΔH and TΔS), equilibrium association and dissociation constants (KA and KD, respectively), and stoichiometry (n) were calculated using TA Instruments NanoAnalyze software.
Endpoint: Kd (µM)
Return type: number; implicit unit µM.

I would be grateful if you could share the reported Kd for CCCCCCC(Sc1nc(Cl)cc(Nc2nc(-c3ccc(C(=O)O)cc3)cs2)n1)C(=O)O (stereo not shown) . 2

====

assay: Cell viability measurements; format: cell-based; settings: log concentration [M] -8.06399; two replicate columns
Catalogue of compounds with associated viability at […]
Return type: number; implicit unit %.

I would be grateful if you could share the reported viability at […] for `O=C1Nc2ccc(I)cc2C1=Cc1cc(Br)c(O)c(Br)c1` . 103

I would be grateful if you could share the reported viability at […] for `Cc1ccc(C(=O)N(CCCN)[C@@H](c2nc3cc(Cl)ccc3c(=O)n2Cc2ccccc2)C(C)C)cc1` . 103

====

Catalogue of molecules with associated CSP
target: GABARAPL2 (Homo sapiens, UniProt P60520); details: residue S10; GABARAPL2:ligand molar ratio 1:2
Return type: number; implicit unit ppm.

What CSP appears in the records for this molecule with GABARAPL2 (Homo sapiens, UniProt P60520)? O=C1Nc2ccc(Br)cc2C1=Cc1cc(O)c(O)c(Br)c1 [compound 1] 0.010

What CSP appears in the records for this molecule with GABARAPL2 (Homo sapiens, UniProt P60520)? O=C1Nc2ccc(I)cc2C1=Cc1cc(Br)c(O)c(Br)c1 [compound 4] 0.019

What CSP appears in the records for this molecule with GABARAPL2 (Homo sapiens, UniProt P60520)? O=c1cc(-c2ccccc2)c2c(O)cc(O)cc2o1 [compound 2] 0.013

What CSP appears in the records for this molecule with GABARAPL2 (Homo sapiens, UniProt P60520)? Cc1ccc(C(=O)N(CCCN)[C@@H](c2nc3cc(Cl)ccc3c(=O)n2Cc2ccccc2)C(C)C)cc1 [compound 3] 0.008

====

biological target: GABARAPL2 (Homo sapiens, UniProt P60520); settings: residue V80; GABARAPL2:ligand molar ratio 1:2
Catalogue of compounds with associated CSP
Return type: number; implicit unit ppm.

The examples below pair each entry with its known result.
{"Compound": "Cc1ccc(C(=O)N(CCCN)[C@@H](c2nc3cc(Cl)ccc3c(=O)n2Cc2ccccc2)C(C)C)cc1 [compound 3]", "Test target": "GABARAPL2 (Homo sapiens, UniProt P60520)", "Units label": "ppm", "Obs value": 0.00281}
{"Compound": "O=C1Nc2ccc(I)cc2C1=Cc1cc(Br)c(O)c(Br)c1 [compound 4]", "Test target": "GABARAPL2 (Homo sapiens, UniProt P60520)", "Units label": "ppm", "Obs value": 0.028}
{"Compound": "O=c1cc(-c2ccccc2)c2c(O)cc(O)cc2o1 [compound 2]", "Test target": "GABARAPL2 (Homo sapiens, UniProt P60520)", "Units label": "ppm", "Obs value": 0.008}

Lab note: next compound to report on.
I would be grateful if you could share the reported CSP for O=C1Nc2ccc(Br)cc2C1=Cc1cc(O)c(O)c(Br)c1 [compound 1] . 0.008
